Where do these numbers come from? They come from ChEMBL document CHEMBL1144395.

Below, each of the molecules is paired with its reported pKi value.
- EXPERIMENTAL DETAILS: Inhibitory activity against c-Jun N-terminal kinase 3 (JNK3)
- Design: species or system Homo sapiens
pKi: −log10 of the molar value.
ENDPOINT: pKi

INSERT INTO assay_data (molecule, relation, data_value) VALUES
  ('N[C@H](CNc1cc(-c2ccncn2)c(-c2cccc(C(F)(F)F)c2)nn1)Cc1ccccc1', '<', 5.00),
  ('O=C(CNc1nccc(-c2cc(C3CCNCC3)nnc2-c2cccc(C(F)(F)F)c2)n1)c1ccccc1', '<', 5.00),
  ('CC(C)N[C@H](CNc1cc(-c2ccncc2)c(-c2cccc3ccccc23)nn1)Cc1ccccc1', '=', 6.22),
  ('CC(Nc1nccc(-c2cc(C3CCNCC3)nnc2-c2cccc(C(F)(F)F)c2)n1)c1ccc(F)cc1 (centres undefined)', '<', 5.00),
  ('N[C@H](CNc1cc(-c2ccncc2)c(-c2cccc3ccccc23)nn1)Cc1ccc(F)cc1', '=', 5.98),
  ('CC(N)(CNc1cc(-c2ccncn2)c(-c2cccc(C(F)(F)F)c2)nn1)Cc1ccccc1 (centres undefined)', '<', 5.00),
  ('O=C(CNc1nccc(-c2cc(C3CCNCC3)nnc2-c2cccc(C(F)(F)F)c2)n1)c1ccc(F)cc1', '<', 5.00),
  ('N[C@H](CNc1cc(-c2ccncc2)c(-c2cccc3ccccc23)nn1)Cc1ccccc1', '=', 6.13),
  ('O=C(CO)N1CCN(c2cc(-c3ccncc3)c(-c3cccc4ccccc34)nn2)C[C@@H]1Cc1ccccc1', '=', 7.14);
